Measured Ki by item
# METHOD_SUMMARY: Displacement of [3H]di-o-toylguanidine from sigma 2 receptor in rat liver homogenates
# Assay type: tissue-based

MOLECULE: O=C(Cc1ccc(Cl)c(Cl)c1)N1CC2CCCC(N3CCCC3)C1CN2Cc1ccccc1 (racemic; 14)
MEASUREMENT_QUALIFIER: >
Ki (nM): 1000
//
MOLECULE: COc1ccc(CN2CC3CCCC(N4CCCC4)C2CN3Cc2ccccc2)cc1 (stereo in doubt; 25)
MEASUREMENT_QUALIFIER: =
Ki (nM): 203
//
MOLECULE: COc1ccc(CN2CC3CCCC(N4CCCC4)C2CN3Cc2ccccc2)cc1 (racemic)
MEASUREMENT_QUALIFIER: >
Ki (nM): 1000
//
MOLECULE: COC(=O)N1CC2C(N3CCCC3)CCCC1CN2C(=O)Cc1ccc(Cl)c(Cl)c1 (stereo in doubt; 9)
MEASUREMENT_QUALIFIER: >
Ki (nM): 1000
//
MOLECULE: CC(C)=CCN1CC[C@]2(C)c3cc(O)ccc3C[C@H]1[C@H]2C [(+)-PENTAZOCINE]
MEASUREMENT_QUALIFIER: =
Ki (nM): 58

Hello, the source for this data is ChEMBL document CHEMBL1781976, in case you need it.
